This collection of values is drawn from ChEMBL document CHEMBL2218924.

Target or system: SRSF protein kinase 3 (Homo sapiens);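 further: residual kinase activity expressed as percent of uninhibited control, measured in MOPS buffer at pH 7.0 containing EDTA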
Condition notes: at 1 µM
Description: Millipore: Percentage of residual kinase activity of SRPK3 at 1uM relative to control. Control inhibitor: Phosphoric acid* at 0.3uM. Buffer: 8 mM MOPS pH 7.0, 0.2 mM EDTA
Quantity: residual activity (%)
Answers are plain numbers, in %.

1. O=C1NC(=O)C(c2cn(CCCn3ccnc3)c3ccccc23)=C1Nc1ccccc1 = 100
2. COc1cc2c(cc1OC)-c1n[nH]c(Nc3cccc(F)c3)c1C2 = 114
3. Nc1ncnc2c1c(-c1ccc(Oc3ccccc3)cc1)cn2C1CCCC1 = 106

Respectfully, I request residual activity for each entry included below.
1. O=c1cc(N2CCNCC2)oc2c(-c3ccccc3)cccc12
2. O=C(CCCc1ccc(-c2ccccc2F)cc1)Nc1ccc(O)cc1

OUT:
103
105

---

Target or system: Platelet-derived growth factor receptor beta (Homo sapiens)
Condition notes: at 1 µM
Kindly state residual activity for each of the entries shown.
Answers are plain numbers, in %.

1) CCCC(=O)Oc1ccc2[nH]c(C(=O)c3cc4ccccc4[nH]3)cc2c1 = 99
2) O=c1c(-c2ccc(F)cc2)c(-c2ccncc2)[nH]n1-c1ccc(Cl)cc1 = 100
3) CC(C)(C)n1nc(Cc2cccc3ccccc23)c2c(N)ncnc21 = 99

Note: attention shifts to another entry.
Summary line: O=C(NC(NC(=S)Nc1ccc(F)c([N+](=O)[O-])c1)C(Cl)(Cl)Cl)C(c1ccccc1)c1ccccc1 (centres undefined) , Platelet-derived growth factor receptor beta (Homo sapiens), reported residual activity = 97

---

Target or system: Fibroblast growth factor receptor 4 (Homo sapiens) (UniProt P22455)
Sequence (P22455 22-802 limits assumed): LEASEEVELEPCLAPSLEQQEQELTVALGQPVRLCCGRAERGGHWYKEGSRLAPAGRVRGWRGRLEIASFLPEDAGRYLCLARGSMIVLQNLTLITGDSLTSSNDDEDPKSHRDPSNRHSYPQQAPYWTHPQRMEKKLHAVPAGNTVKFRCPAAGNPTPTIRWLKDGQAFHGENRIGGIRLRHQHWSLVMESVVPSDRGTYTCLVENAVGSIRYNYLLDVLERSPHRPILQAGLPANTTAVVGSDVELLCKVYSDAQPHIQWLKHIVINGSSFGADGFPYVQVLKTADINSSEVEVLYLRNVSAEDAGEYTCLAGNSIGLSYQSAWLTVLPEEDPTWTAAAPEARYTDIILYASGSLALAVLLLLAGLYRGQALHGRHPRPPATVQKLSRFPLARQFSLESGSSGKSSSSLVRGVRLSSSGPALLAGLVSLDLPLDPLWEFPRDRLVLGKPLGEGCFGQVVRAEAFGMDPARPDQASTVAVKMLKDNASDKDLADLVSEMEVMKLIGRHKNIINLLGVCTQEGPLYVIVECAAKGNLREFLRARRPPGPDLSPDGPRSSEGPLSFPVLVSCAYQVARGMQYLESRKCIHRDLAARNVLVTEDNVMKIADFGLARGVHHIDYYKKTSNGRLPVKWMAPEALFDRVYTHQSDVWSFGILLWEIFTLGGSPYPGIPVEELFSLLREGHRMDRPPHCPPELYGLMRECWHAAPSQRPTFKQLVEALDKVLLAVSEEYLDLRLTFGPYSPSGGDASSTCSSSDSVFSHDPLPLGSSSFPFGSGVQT
Condition notes: at 1 µM
Quantity: residual activity (%)
Answers are plain numbers, in %.

The examples below pair each entry with its known result.
1. Nc1nc(Nc2ccc(S(N)(=O)=O)cc2)nn1C(=O)c1c(F)cccc1F = 99
2. O=C(Nc1nc2ccccc2n1CCN1CCOCC1)c1cccc([N+](=O)[O-])c1 = 114
3. Nc1ncnc2c1c(-c1ccc(Oc3ccccc3)cc1)cn2C1CCCC1 = 100

Respectfully, I request residual activity for each entry included below.
1. Nc1ncnc2[nH]nc(Nc3ccc(F)cc3)c12
2. CCCCc1c(-c2ccc(OC)cc2)[nH]c2nccnc12
3. CCCC(=O)Oc1ccc2[nH]c(C(=O)c3cc4ccccc4[nH]3)cc2c1
4. COc1cc2nccc(Oc3ccc(NC(=O)Nc4cc(C)on4)c(Cl)c3)c2cc1OC
5. COc1ccc2c(c1)c(C1=C(c3c[nH]c4ccccc34)C(=O)NC1=O)cn2CCCN(C)C

OUT:
98
109
125
76
120

Respectfully, I request residual activity for each entry included below.
1. COc1ccc(COc2ccc(Cc3cnc(N)nc3N)cc2OC)cc1
2. Cn1c2ccccc2c2c3c(c4c5ccccc5n(CCC#N)c4c21)CNC3=O

OUT:
1: 131; 2: 111

---

Target or system: Serine/threonine-protein kinase VRK2 (Homo sapiens)
Condition notes: at 10 µM
Description: Millipore: Percentage of residual kinase activity of VRK2 at 10uM relative to control. Control inhibitor: Phosphoric acid* at 0.3uM. Buffer: 8 mM MOPS pH 7.0, 0.2 mM EDTA
Quantity: residual activity (%)
Give bare numbers, in %.

The examples below pair each entry with its known result.
1. Nc1ncnc2c1cnn2-c1ccccc1 = 90
2. O=C1NC(=O)c2c1c1c3ccccc3[nH]c1n1cncc21 = 91
3. Cn1sc(=O)n(Cc2ccccc2)c1=O = 90
4. O=c1cc(N2CCOCC2)oc2c1ccc1ccccc12 = 90

Note: attention shifts to another entry.
The recorded residual activity for `O=C1Cc2c([nH]c3ccc(Br)cc23)-c2ccccc2N1` is 90

---

Target or system: Serine/threonine-protein kinase WNK3 (Homo sapiens)
Condition notes: at 10 µM
Description: Millipore: Percentage of residual kinase activity of WNK3 at 10uM relative to control. Control inhibitor: Phosphoric acid* at 0.3uM. Buffer: 8 mM MOPS pH 7.0, 0.2 mM EDTA
Quantity: residual activity
Note: state the figure and append the unit.

The examples below pair each entry with its known result.
1. O=c1c(-c2ccc(F)cc2)c(-c2ccncc2)[nH]n1-c1ccc(Cl)cc1 = 102%
2. O=C1Nc2ccccc2/C1=C\c1c(Cl)[nH]c2ccccc12 = 64%

Note: attention shifts to another entry.
Summary line: `O=C(c1cc2cc(O)ccc2[nH]1)c1cc2cc(O)ccc2[nH]1` , Serine/threonine-protein kinase WNK3 (Homo sapiens), reported residual activity = 44%
